Known pIC50 of a selection of molecules
Assay Summary: cells
Recorded Conditions: Homo sapiens, NALM16, 72 h
pIC50: −log10 of the molar value.

# Substance Smiles, Value Relation Sign, pIC50
measured = [
    ("Cc1sc2c(c1C)C(c1ccc(Cl)cc1)=N[C@@H](CC(=O)NCc1ccccc1)c1nnc(C)n1-2", "=", 6.34),
    ("Cc1sc2c(c1C)C(c1ccc(Cl)cc1)=N[C@@H](CC(=O)Nc1ccc(O)cc1)c1nnc(C)n1-2", "=", 7.85),
    ("Cc1sc2c(c1C)C(c1ccc(Cl)cc1)=N[C@@H](CC(=O)NCCO)c1nnc(C)n1-2", "=", 8.15),
    ("Cc1sc2c(c1C)C(c1ccc(Cl)cc1)=N[C@@H](CC(=O)NCC(=O)O)c1nnc(C)n1-2", "<", 5.05),
    ("Cc1sc2c(c1C)C(c1ccc(Cl)cc1)=N[C@@H](CC(=O)Nc1nccs1)c1nnc(C)n1-2", "=", 8.22),
    ("Cc1sc2c(c1C)C(c1ccc(Cl)cc1)=N[C@@H](CC(=O)NCc1cn(C)cn1)c1nnc(C)n1-2", "=", 7.03),
    ("Cc1sc2c(c1C)C(c1ccc(Cl)cc1)=N[C@@H](CC(=O)NCc1cn(C)nn1)c1nnc(C)n1-2", "=", 7.85),
    ("COC(=O)CNC(=O)C[C@@H]1N=C(c2ccc(Cl)cc2)c2c(sc(C)c2C)-n2c(C)nnc21", "=", 7.80),
    ("Cc1sc2c(c1C)C(c1ccc(Cl)cc1)=N[C@@H](CC(=O)OC(C)(C)C)c1nnc(C)n1-2", "=", 7.74),
    ("Cc1sc2c(c1C)C(c1ccc(Cl)cc1)=N[C@@H](CC(=O)NCCc1c[nH]c3ccccc13)c1nnc(C)n1-2", "=", 6.76),
    ("COC(=O)[C@H](Cc1c[nH]cn1)NC(=O)C[C@@H]1N=C(c2ccc(Cl)cc2)c2c(sc(C)c2C)-n2c(C)nnc21", "=", 6.10),
    ("Cc1sc2c(c1C)C(c1ccc(Cl)cc1)=N[C@@H](CC(=O)NCc1c[nH]nn1)c1nnc(C)n1-2", "=", 8.15),
    ("Cc1sc2c(c1C)C(c1ccc(Cl)cc1)=N[C@@H](CC(=O)NCc1ccon1)c1nnc(C)n1-2", "=", 7.92),
    ("Cc1sc2c(c1C)C(c1ccc(Cl)cc1)=N[C@@H](CC(=O)Nc1nncs1)c1nnc(C)n1-2", "=", 8.52),
    ("Cc1sc2c(c1C)C(c1ccc(Cl)cc1)=N[C@@H](CC(=O)NCc1ccccn1)c1nnc(C)n1-2", "=", 7.85),
]

* * *

Tested on: D283 Med
Assay Summary: cells
Recorded Conditions: Homo sapiens, 72 h
Measure Name: IC50 (nM)

# Substance Smiles, Assay System, Measurement Units, Quantitative Readout
rows = [
    ("Cc1sc2c(c1C)C(c1ccc(Cl)cc1)=N[C@@H](CC(=O)NCc1ccccn1)c1nnc(C)n1-2", "D283 Med", "nM", 228),
    ("Cc1sc2c(c1C)C(c1ccc(Cl)cc1)=N[C@@H](CC(=O)Nc1nncs1)c1nnc(C)n1-2", "D283 Med", "nM", 56),
    ("Cc1sc2c(c1C)C(c1ccc(Cl)cc1)=N[C@@H](CC(=O)NCc1c[nH]nn1)c1nnc(C)n1-2", "D283 Med", "nM", 964),
    ("Cc1sc2c(c1C)C(c1ccc(Cl)cc1)=N[C@@H](CC(=O)NCc1ccon1)c1nnc(C)n1-2", "D283 Med", "nM", 25),
]

* * *

Assay System: Bromodomain-containing protein 2 (Homo sapiens, UniProt P25440)
Sequence (P25440 whole entry): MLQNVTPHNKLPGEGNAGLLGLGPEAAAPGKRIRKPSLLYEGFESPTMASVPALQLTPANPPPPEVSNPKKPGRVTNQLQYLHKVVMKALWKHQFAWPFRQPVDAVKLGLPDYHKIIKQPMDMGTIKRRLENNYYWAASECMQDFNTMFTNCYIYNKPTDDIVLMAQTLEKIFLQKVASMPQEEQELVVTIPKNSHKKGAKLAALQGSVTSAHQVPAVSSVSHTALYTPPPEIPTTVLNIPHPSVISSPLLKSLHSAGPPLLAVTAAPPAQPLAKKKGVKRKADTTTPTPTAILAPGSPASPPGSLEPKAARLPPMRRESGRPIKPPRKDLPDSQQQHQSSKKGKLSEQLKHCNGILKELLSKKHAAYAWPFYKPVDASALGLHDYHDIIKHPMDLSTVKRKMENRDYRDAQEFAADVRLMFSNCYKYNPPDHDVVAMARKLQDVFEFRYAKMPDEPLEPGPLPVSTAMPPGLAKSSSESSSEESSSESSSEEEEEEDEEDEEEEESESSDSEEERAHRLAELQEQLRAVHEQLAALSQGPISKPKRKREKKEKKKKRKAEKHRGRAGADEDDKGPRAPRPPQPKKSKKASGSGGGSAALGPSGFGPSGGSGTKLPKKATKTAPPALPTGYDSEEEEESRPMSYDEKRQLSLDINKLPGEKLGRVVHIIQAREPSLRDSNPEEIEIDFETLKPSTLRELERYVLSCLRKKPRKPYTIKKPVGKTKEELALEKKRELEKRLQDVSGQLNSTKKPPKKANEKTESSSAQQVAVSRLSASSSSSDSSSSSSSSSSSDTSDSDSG
Assay Summary: Inhibition of BRD2 BD2 (unknown origin) by TR-FRET assay
pIC50: −log10 of the molar value.
Below, each of the molecules is paired with its reported pIC50 value.
Measure Name: pIC50

# Substance Smiles, Quantitative Readout
measured = [
    ("Cc1sc2c(c1C)C(c1ccc(Cl)cc1)=N[C@@H](CC(=O)NCc1ccccn1)c1nnc(C)n1-2", 9.52),
    ("Cc1sc2c(c1C)C(c1ccc(Cl)cc1)=N[C@@H](CC(=O)NCc1cn(C)cn1)c1nnc(C)n1-2", 8.52),
    ("Cc1sc2c(c1C)C(c1ccc(Cl)cc1)=N[C@@H](CC(=O)NCc1ccccc1)c1nnc(C)n1-2", 9.70),
    ("COC(=O)[C@H](Cc1c[nH]cn1)NC(=O)C[C@@H]1N=C(c2ccc(Cl)cc2)c2c(sc(C)c2C)-n2c(C)nnc21", 8.05),
    ("Cc1sc2c(c1C)C(c1ccc(Cl)cc1)=N[C@@H](CC(=O)NCC(=O)O)c1nnc(C)n1-2", 9.52),
    ("Cc1sc2c(c1C)C(c1ccc(Cl)cc1)=N[C@@H](CC(=O)NCc1ncco1)c1nnc(C)n1-2", 10.00),
    ("Cc1sc2c(c1C)C(c1ccc(Cl)cc1)=N[C@@H](CC(=O)NCCc1c[nH]c3ccccc13)c1nnc(C)n1-2", 7.30),
    ("Cc1sc2c(c1C)C(c1ccc(Cl)cc1)=N[C@@H](CC(=O)NCc1ccon1)c1nnc(C)n1-2", 10.00),
    ("Cc1sc2c(c1C)C(c1ccc(Cl)cc1)=N[C@@H](CC(=O)Nc1nncs1)c1nnc(C)n1-2", 10.00),
]

* * *

Consider compounds characterized by their log10 of IC50 with Bromodomain-containing protein 4 (Homo sapiens).
Measure Name: log10 of IC50 (log10 of the value in µM)

# Substance Smiles, Quantitative Readout
data = [
    ("COC(=O)[C@H](Cc1c[nH]cn1)NC(=O)C[C@@H]1N=C(c2ccc(Cl)cc2)c2c(sc(C)c2C)-n2c(C)nnc21", -1.47),
    ("Cc1sc2c(c1C)C(c1ccc(Cl)cc1)=N[C@@H](CC(=O)NCc1cn(C)cn1)c1nnc(C)n1-2", -1.09),
    ("Cc1sc2c(c1C)C(c1ccc(Cl)cc1)=N[C@@H](CC(=O)NCc1cn(C)nn1)c1nnc(C)n1-2", 0.15),
    ("Cc1sc2c(c1C)C(c1ccc(Cl)cc1)=N[C@@H](CC(=O)Nc1nncs1)c1nnc(C)n1-2", -2.22),
    ("Cc1sc2c(c1C)C(c1ccc(Cl)cc1)=N[C@@H](CC(=O)NCc1c[nH]nn1)c1nnc(C)n1-2", -1.10),
]

* * *

Recorded Conditions: human, microsomes
Measured t1/2, listed per entry for reference.
Measure Name: t1/2 (h)

# Substance Smiles, Quantitative Readout
rows = [
    ("Cc1sc2c(c1C)C(c1ccc(Cl)cc1)=N[C@@H](CC(=O)OC(C)(C)C)c1nnc(C)n1-2", 0.4),
    ("Cc1sc2c(c1C)C(c1ccc(Cl)cc1)=N[C@@H](CC(=O)Nc1nncs1)c1nnc(C)n1-2", 3.2),
    ("Cc1sc2c(c1C)C(c1ccc(Cl)cc1)=N[C@@H](CC(=O)Nc1ccc(O)cc1)c1nnc(C)n1-2", 1.7),
    ("Cc1sc2c(c1C)C(c1ccc(Cl)cc1)=N[C@@H](CC(=O)NCc1ccon1)c1nnc(C)n1-2", 0.4),
]

* * *

Test system: HD-MB03
Assay Summary: cells
Recorded Conditions: Homo sapiens, HD-MB03, 72 h
pIC50: −log10 of the molar value.
Measure Name: pIC50

# Substance Smiles, Quantitative Readout
records = [
    ("Cc1sc2c(c1C)C(c1ccc(Cl)cc1)=N[C@@H](CC(=O)NCc1ccon1)c1nnc(C)n1-2", 7.77),
    ("Cc1sc2c(c1C)C(c1ccc(Cl)cc1)=N[C@@H](CC(=O)Nc1nncs1)c1nnc(C)n1-2", 8.22),
    ("Cc1sc2c(c1C)C(c1ccc(Cl)cc1)=N[C@@H](CC(=O)NCc1ncco1)c1nnc(C)n1-2", 9.00),
    ("Cc1sc2c(c1C)C(c1ccc(Cl)cc1)=N[C@@H](CC(=O)NCc1cn(C)nn1)c1nnc(C)n1-2", 7.40),
    ("Cc1sc2c(c1C)C(c1ccc(Cl)cc1)=N[C@@H](CC(=O)NCCc1c[nH]c3ccccc13)c1nnc(C)n1-2", 6.60),
    ("Cc1sc2c(c1C)C(c1ccc(Cl)cc1)=N[C@@H](CC(=O)NCCO)c1nnc(C)n1-2", 7.38),
    ("Cc1sc2c(c1C)C(c1ccc(Cl)cc1)=N[C@@H](CC(=O)NCc1c[nH]nn1)c1nnc(C)n1-2", 8.52),
    ("Cc1sc2c(c1C)C(c1ccc(Cl)cc1)=N[C@@H](CC(=O)NCc1ccccc1)c1nnc(C)n1-2", 6.21),
    ("COC(=O)CNC(=O)C[C@@H]1N=C(c2ccc(Cl)cc2)c2c(sc(C)c2C)-n2c(C)nnc21", 6.44),
    ("Cc1sc2c(c1C)C(c1ccc(Cl)cc1)=N[C@@H](CC(=O)NCC(=O)O)c1nnc(C)n1-2", 5.03),
    ("Cc1sc2c(c1C)C(c1ccc(Cl)cc1)=N[C@@H](CC(=O)OC(C)(C)C)c1nnc(C)n1-2", 7.05),
    ("Cc1sc2c(c1C)C(c1ccc(Cl)cc1)=N[C@@H](CC(=O)Nc1nccs1)c1nnc(C)n1-2", 8.40),
    ("Cc1sc2c(c1C)C(c1ccc(Cl)cc1)=N[C@@H](CC(=O)NCc1ccccn1)c1nnc(C)n1-2", 6.58),
    ("Cc1sc2c(c1C)C(c1ccc(Cl)cc1)=N[C@@H](CC(=O)NCc1cn(C)cn1)c1nnc(C)n1-2", 6.45),
]
